- Measurement Notes: Serum (blood) level of isoflavone derivatives after oral administration to ovariectomized rats
- Design: species or system Sprague-Dawley rats
- Stated Conditions: rat, in vivo
Observed Property: concentration at 4 h (ng/mL)

{"Structure As Smiles": "COc1cc2c(=O)c(-c3ccc(O)cc3)coc2cc1O[C@@H]1O[C@H](CO)[C@@H](O)[C@H](O)[C@H]1O", "concentration at 4 h / ng/mL": 750}
{"Structure As Smiles": "O=c1c(-c2ccc(O)cc2)coc2cc(O[C@@H]3O[C@H](CO)[C@@H](O)[C@H](O)[C@H]3O)cc(O)c12", "concentration at 4 h / ng/mL": 780}
{"Structure As Smiles": "CC(=O)OC[C@H]1O[C@@H](Oc2ccc3c(=O)c(-c4ccc(O)cc4)coc3c2)[C@H](O)[C@@H](O)[C@@H]1O", "concentration at 4 h / ng/mL": 740}
{"Structure As Smiles": "O=C(O)CC(=O)OC[C@H]1O[C@@H](Oc2cc(O)c3c(=O)c(-c4ccc(O)cc4)coc3c2)[C@H](O)[C@@H](O)[C@@H]1O", "concentration at 4 h / ng/mL": 840}
{"Structure As Smiles": "O=C(O)CC(=O)OC[C@H]1O[C@@H](Oc2ccc3c(=O)c(-c4ccc(O)cc4)coc3c2)[C@H](O)[C@@H](O)[C@@H]1O", "concentration at 4 h / ng/mL": 850}
{"Structure As Smiles": "COc1cc2c(=O)c(-c3ccc(O)cc3)coc2cc1O[C@@H]1O[C@H](COC(=O)CCC(=O)O)[C@@H](O)[C@H](O)[C@H]1O", "concentration at 4 h / ng/mL": 790}
{"Structure As Smiles": "O=C(O)CCC(=O)OC[C@H]1O[C@@H](Oc2cc(O)c3c(=O)c(-c4ccc(O)cc4)coc3c2)[C@H](O)[C@@H](O)[C@@H]1O", "concentration at 4 h / ng/mL": 820}
{"Structure As Smiles": "COc1cc2c(=O)c(-c3ccc(O)cc3)coc2cc1O", "concentration at 4 h / ng/mL": 630}
{"Structure As Smiles": "O=c1c(-c2ccc(O)cc2)coc2cc(O)ccc12", "concentration at 4 h / ng/mL": 650}
{"Structure As Smiles": "O=c1c(-c2ccc(O)cc2)coc2cc(O)cc(O)c12", "concentration at 4 h / ng/mL": 680}
{"Structure As Smiles": "O=C(O)CCC(=O)OC[C@H]1O[C@@H](Oc2ccc3c(=O)c(-c4ccc(O)cc4)coc3c2)[C@H](O)[C@@H](O)[C@@H]1O", "concentration at 4 h / ng/mL": 860}
{"Structure As Smiles": "COc1cc2c(=O)c(-c3ccc(O)cc3)coc2cc1O[C@@H]1O[C@H](COC(C)=O)[C@@H](O)[C@H](O)[C@H]1O", "concentration at 4 h / ng/mL": 720}
{"Structure As Smiles": "COc1cc2c(=O)c(-c3ccc(O)cc3)coc2cc1O[C@@H]1O[C@H](COC(=O)CC(=O)O)[C@@H](O)[C@H](O)[C@H]1O", "concentration at 4 h / ng/mL": 780}
{"Structure As Smiles": "CC(=O)OC[C@H]1O[C@@H](Oc2cc(O)c3c(=O)c(-c4ccc(O)cc4)coc3c2)[C@H](O)[C@@H](O)[C@@H]1O", "concentration at 4 h / ng/mL": 780}

The origin of these recorded values is patent US5847108A.
